The entries below come with measured pIC50 values attached.
- targetUnderTest: Neuraminidase (Influenza A virus (A/Memphis/1/1971(H3N2)), UniProt P03471)
- Sequence (P03471 whole entry): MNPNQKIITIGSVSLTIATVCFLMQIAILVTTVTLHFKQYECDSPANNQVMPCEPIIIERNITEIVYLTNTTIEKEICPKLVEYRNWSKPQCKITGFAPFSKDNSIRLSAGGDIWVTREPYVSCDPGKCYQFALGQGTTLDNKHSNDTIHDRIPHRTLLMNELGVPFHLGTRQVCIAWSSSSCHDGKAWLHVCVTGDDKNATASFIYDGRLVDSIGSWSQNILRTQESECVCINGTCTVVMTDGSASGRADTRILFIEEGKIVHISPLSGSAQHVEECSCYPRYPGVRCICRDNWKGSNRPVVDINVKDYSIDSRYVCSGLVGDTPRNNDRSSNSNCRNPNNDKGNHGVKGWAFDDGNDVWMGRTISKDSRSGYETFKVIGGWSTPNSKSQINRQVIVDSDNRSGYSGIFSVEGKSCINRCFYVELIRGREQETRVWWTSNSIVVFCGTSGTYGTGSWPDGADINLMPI
// field semantics: pIC50 = negative decimal log of concentration (mol/L)

Send back Neuraminidase (Influenza A virus (A/Memphis/1/1971(H3N2)), UniProt P03471) pIC50 of CC(=O)N[C@H]1[C@H]([C@H](O)[C@H](O)CO)O[C@@](SCCCCCSCCCCCC(=O)NCCC[Si](CCCNC(=O)CCCCCSCCCCCS[C@]2(C(=O)O)C[C@H](O)[C@@H](NC(C)=O)[C@H]([C@H](O)[C@H](O)CO)O2)(CCCNC(=O)CCCCCSCCCCCS[C@]2(C(=O)O)C[C@H](O)[C@@H](NC(C)=O)[C@H]([C@H](O)[C@H](O)CO)O2)CCCNC(=O)CCCCCSCCCCCS[C@]2(C(=O)O)C[C@H](O)[C@@H](NC(C)=O)[C@H]([C@H](O)[C@H](O)CO)O2)(C(=O)O)C[C@@H]1O only.
2.06

Send back Neuraminidase (Influenza A virus (A/Memphis/1/1971(H3N2)), UniProt P03471) pIC50 of CC(=O)N[C@H]1[C@H]([C@H](O)[C@H](O)CO)O[C@@](SCCCCCSCCCOCCC[Si](CCCOCCCSCCCCCS[C@]2(C(=O)O)C[C@H](O)[C@@H](NC(C)=O)[C@H]([C@H](O)[C@H](O)CO)O2)(CCCOCCCSCCCCCS[C@]2(C(=O)O)C[C@H](O)[C@@H](NC(C)=O)[C@H]([C@H](O)[C@H](O)CO)O2)c2ccccc2)(C(=O)O)C[C@@H]1O only.
2.30

Send back Neuraminidase (Influenza A virus (A/Memphis/1/1971(H3N2)), UniProt P03471) pIC50 of CC(=O)N[C@H]1[C@H]([C@H](O)[C@H](O)CO)O[C@@](SCCCCCSCCCCCC(=O)NCCC[Si](CCCNC(=O)CCCCCSCCCCCS[C@]2(C(=O)O)C[C@H](O)[C@@H](NC(C)=O)[C@H]([C@H](O)[C@H](O)CO)O2)(CCCNC(=O)CCCCCSCCCCCS[C@]2(C(=O)O)C[C@H](O)[C@@H](NC(C)=O)[C@H]([C@H](O)[C@H](O)CO)O2)c2ccccc2)(C(=O)O)C[C@@H]1O only.
2.15

Okay, now this compound:
Send back Neuraminidase (Influenza A virus (A/Memphis/1/1971(H3N2)), UniProt P03471) pIC50 of CC(=O)N[C@H]1[C@H]([C@H](O)[C@H](O)CO)O[C@@](SCCCCCSCCCOCCC[Si](CCCOCCCSCCCCCS[C@]2(C(=O)O)C[C@H](O)[C@@H](NC(C)=O)[C@H]([C@H](O)[C@H](O)CO)O2)(CCCOCCCSCCCCCS[C@]2(C(=O)O)C[C@H](O)[C@@H](NC(C)=O)[C@H]([C@H](O)[C@H](O)CO)O2)CCCOCCCSCCCCCS[C@]2(C(=O)O)C[C@H](O)[C@@H](NC(C)=O)[C@H]([C@H](O)[C@H](O)CO)O2)(C(=O)O)C[C@@H]1O only.
2.30
